growth inhibition values, listed per item
Assay: NCI Yeast Anticancer Drug Screen. Data for the bub3 strain (AID 167)
Settings: S. cerevisiae bub3 mutant strain, at 50.0 µM, active compounds read high
This is part of a sample that, as a whole, favours compounds with a hit. Of some 79,000 tested, about 15% had one in any assay.
reported.metric: growth inhibition (%)

{"compound": "CC(C)CCC[C@@H](C)[C@H]1CC[C@@]2(C)C3=C(C(=O)C[C@]12C)[C@@]1(C)CC[C@H](O)C(C)(C)[C@@H]1CC3=O", "reported.metric": "growth inhibition", "measured.result": 6.1}
{"compound": "CCc1ccc(N=Nc2ccc(Br)cc2)cc1", "reported.metric": "growth inhibition", "measured.result": 2.85}
{"compound": "Cc1ccc(NC(=O)CC2C(=O)Nc3ccccc3S2=O)c(C)c1 (stereo not given)", "reported.metric": "growth inhibition", "measured.result": 15.8}
{"compound": "O=C(NC1C(=O)NNC1c1cccc([N+](=O)[O-])c1)c1ccccc1 (stereo not given)", "reported.metric": "growth inhibition", "measured.result": 11.9}
{"compound": "CC(CCl)NC(=O)Nc1cccc2c1CCCC2 (stereo not given)", "reported.metric": "growth inhibition", "measured.result": -2.6}

Attribution: PubChem BioAssay (NCI)
